B1: USP39 (parent)
chain: TLSEAYIQIWKRRDNDETNQQGA

variants of: B1; experiment: protein stability index of a GFP-peptide fusion (GPS, HEK-293T) (PSI 1-6); higher = more stable; conditions: c terminus: native;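 note: lentivirally expressed fusions sorted by FACS into six bins by GFP to DsRed ratio, PSI derived from sequencing read proportions per bin multiplied by bin number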
Everything with protein stability index lower than 2 is -1; everything else, including exactly 2, is 1.

Consider the following illustrative entries.
Prompt: Could you verify whether the entry "K11I" shows protein stability index of no less than 2?
Completion: 1

Prompt: Test whether the variant "W10E" records protein stability index of 2 or higher.
Completion: 1

Prompt: API: above_or_equal(metric=protein stability index, cutoff=2) for item "R13G"
Completion: -1

Prompt: Hi team, for "E4Q" , is the recorded protein stability index at or above 2?
Completion: 1

Prompt: Tell me whether protein stability index is at least 2 here: "W10L"
Completion: 1

Others:
Prompt: Decide: protein stability index of "K11V" >= 2?
Completion: -1
